biological target: human PCSK9 (Homo sapiens, UniProt Q8NBP7); assay: PCSK9 ligand binding TR-FRET assay (interference with binding of human PCSK9 to human LDLR); details: TR-FRET; human PCSK9 Alexa Fluor 647 / human LDLR extracellular domain-Europium Kryptate; read-out: PCSK9 FRET Assay IC50
Sequence (Q8NBP7 153-692): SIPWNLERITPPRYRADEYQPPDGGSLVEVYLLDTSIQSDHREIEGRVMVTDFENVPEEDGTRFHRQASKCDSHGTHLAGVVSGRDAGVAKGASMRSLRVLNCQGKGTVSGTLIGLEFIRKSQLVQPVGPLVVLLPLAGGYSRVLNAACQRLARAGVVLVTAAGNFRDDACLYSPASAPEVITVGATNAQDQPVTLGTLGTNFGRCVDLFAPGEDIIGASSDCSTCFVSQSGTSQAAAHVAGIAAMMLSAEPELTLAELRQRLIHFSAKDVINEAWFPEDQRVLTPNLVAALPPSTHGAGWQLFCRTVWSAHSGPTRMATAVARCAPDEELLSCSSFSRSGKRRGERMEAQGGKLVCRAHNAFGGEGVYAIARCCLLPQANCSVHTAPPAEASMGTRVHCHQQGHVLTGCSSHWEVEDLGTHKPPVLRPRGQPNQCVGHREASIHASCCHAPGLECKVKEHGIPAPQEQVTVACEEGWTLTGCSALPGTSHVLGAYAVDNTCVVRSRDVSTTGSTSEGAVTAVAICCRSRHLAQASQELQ
Sequence (Q8NBP7 31-152 partner limits assumed): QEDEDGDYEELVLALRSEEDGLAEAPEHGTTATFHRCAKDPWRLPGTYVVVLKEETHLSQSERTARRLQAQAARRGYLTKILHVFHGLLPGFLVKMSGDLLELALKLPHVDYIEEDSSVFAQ
pIC50: −log10 of the molar value.
measured.metric: pIC50

1. COCCN(C)C(=O)C[C@H]1C(=O)N[C@@H](COC)C(=O)N(C)[C@@H](Cc2ccc(Cl)cc2)CC(=O)N[C@H]2CCCC[C@@H]2N(C)C(=O)[C@H](Cc2ccccc2)CC(=O)N1Cc1ccc(Cl)cc1Oc1ccc(-c2cnc(CN(C)C)n2C)cc1 :: 8.89
2. COC[C@@H]1NC(=O)[C@H](C)N(Cc2ccc(Cl)cc2Oc2ccc(-c3cnc4c(c3)CNCC4)cc2)C(=O)C[C@@H](Cc2ccccc2)C(=O)N(C)[C@@H](C)CNC(=O)C[C@H](Cc2ccc(Cl)cc2)N(C)C1=O :: 8.28
3. COC[C@@H]1NC(=O)[C@H](C)N(Cc2ccc(Cl)cc2Oc2ccc(-n3nnc(CN(C)C)c3C)cc2)C(=O)C[C@@H](Cc2ccccc2)C(=O)N(C)[C@@H](C)CNC(=O)C[C@H](Cc2ccc(Cl)cc2)N(C)C1=O.O=CO [Compound 134, formate] :: 7.40
4. COC[C@@H]1NC(=O)[C@H](CCCN2CC(F)(F)C(F)(F)C2)N(Cc2ccc(Cl)cc2Oc2ccc(-c3cnc(CN(C)C)n3C)cc2)C(=O)C[C@@H](Cc2ccccc2)C(=O)N(C)[C@H]2CCCC[C@@H]2NC(=O)C[C@H](Cc2ccc(Cl)cc2)N(C)C1=O :: 8.52
